I'd appreciate it if you could supply Lethality values for the items below.
Tested on: mice
assay-protocol: Test for acute toxicity on mice
Format: in vivo
condition-label: 2,000 mg/kg orally; one week after the administration; dead/tested

> print(dat)
                                   compound  result
1  O=C(O)CCC1Cc2ccc(F)cc2C1=O (stereo not shown) [Example 6]     2/6
2  O=C(O)CCC1Cc2c(F)cccc2C1=O (stereo not shown) [Example 5]     2/6
3  O=C(O)CCCCC1Cc2c(Cl)cccc2C1=O (stereo not shown) [Example 14]     0/6
4  O=C(O)CCCCC1Cc2cc(Cl)ccc2C1=O (stereo not shown) [Example 15]     0/6

Provide Lethality for all items below, preserving their order.
1. O=C(O)CCCC1Cc2c(Cl)cc(Cl)cc2C1=O (stereo not shown) [Example 13]
2. O=C(O)CCCC1Cc2ccc(Cl)cc2C1=O (stereo not shown) [Example 2]
3. O=C(O)CCCC1Cc2ccc(F)cc2C1=O (stereo not shown) [Example 1]

Result block:
1/6
2/6
1/6
